- Tested on: IGROV1 ovarian
- experiment: NCI-60 one-dose screen, 48 h (100 = growth as untreated, 0 = no growth, -100 = all killed)
- test.context: 10 µM unless noted
The panel holds about 83,000 compounds, 20% with a hit somewhere; the sample as a whole holds those more often.
growth: recorded values

# molecule, unit.abbrev, growth
rows = [
    ("COc1ccc(/C=C2\\CN(C(=O)CCN3CCC(=NO)CC3)C/C(=C\\c3ccc(OC)cc3)C2=O)cc1", "%", -14.1),
    ("COc1cc2nc3cc([N+](=O)[O-])ccc3c(NCCCNCC(C)(C)O)c2cc1OC", "%", -18),
    ("O=C(CN1CCN(c2cc3c(cc2F)c(=O)c(C(=O)O)cn3C2CC2)CC1)Nc1nc(-c2ccccc2)cs1", "%", 84.7),
    ("CS(CCCCN=C=S)=NC(=O)c1c(F)c(F)c(F)c(F)c1F (configuration not stated)", "%", 76.8),
    ("O=C1NC(=O)C(CC(=O)n2c(-c3ccccc3)nc3ccccc32)C(=O)N1", "%", 93.3),
    ("Nc1cccc(NC(=O)C(=O)Nc2cccc(N)c2)c1", "%", 75.7),
    ("Nc1nc(-c2ccc(F)cc2)cc(-c2cnn(-c3ccccc3)n2)n1", "%", 83.8),
    ("NC(=S)N/N=C/c1ccc(OCc2ccccc2)cc1", "%", 52.8),
    ("CCOC(=O)CC(C)=N", "%", 132),
    ("O=C(COc1cccc(/C=C2/Oc3ccccc3C2=O)c1)Nc1nccs1", "%", -35),
    ("O=C(COCc1c(-c2ccccc2)no[n+]1[O-])Nc1ccc(C(=O)/C=C/c2ccc3c(c2)OCO3)cc1", "%", 95.2),
    ("CS(=O)(CCCCN=C=S)=NC(=O)c1c(F)c(F)c(F)c(F)c1F (configuration not stated)", "%", 106),
    ("N#Cc1c(N)nc(N)nc1Nc1ccc(Br)cc1", "%", 47),
    ("COc1cnc2c(c1)C(=O)c1c-2n(CCCBr)c(=O)c2cc([N+](=O)[O-])ccc12", "%", 2.21),
    ("C#Cc1nc2ccccc2c(=O)[nH]1", "%", -66.2),
    ("Nc1c(C(=O)Nc2cccc3c2OCCO3)sc2nc3c(cc12)C(=O)CCC3", "%", 48),
    ("O=S(=O)(Nc1ccc(F)c(Cl)c1)c1ccc(-c2cnc(C3CC3)o2)cc1", "%", 27.3),
]

----------
- Test system: OVCAR-5 ovarian
- experiment: NCI-60 one-dose screen, 48 h (100 = growth as untreated, 0 = no growth, -100 = all killed)
- test.context: 10 µM unless noted
Compounds without any hit were thinned out: in the full panel of roughly 83,000, 20% have a hit. Activity calls are given as the source filed them. Rule for the calls: active = growth percent below 10; inactive = the rest.
Attribute: growth

# compound, growth
rows = [
    ("Fc1ccc(Cc2ccc(F)cc2)cc1", "102% (inactive)"),
    ("Nc1ccc(Nc2nccc(-c3ccc4ccccc4c3)n2)cc1", "69.1% (inactive)"),
    ("CC[C@@H](C)OC(=O)c1nn(C(C)=O)c2ccccc12", "101% (inactive)"),
    ("NC1=CC(=O)C(=O)c2ccccc21", "93.3% (inactive)"),
    ("CCCCCCCCCCCCCCCCNCCC[C@@H](C)[C@H]1CC[C@H]2[C@@H]3[C@H](OCCCN)C[C@@H]4C[C@H](OCCCN)CC[C@]4(C)[C@H]3C[C@H](OCCCN)[C@]12C", "-3.67% (active)"),
    ("COc1cc(NC(N)=NCC(C)(C)COc2ccc(C(F)(F)F)cc2)cnc1C#N", "65% (inactive)"),
    ("O=C1C[C@H](N2C(=O)c3ccccc3S2(=O)=O)C2CO[C@@H]1O2", "97.5% (inactive)"),
    ("CN1Cc2c(cc(CN3CCCCC3)n2C)C(c2ccc(Br)cc2)C1 (stereo not drawn)", "96.1% (inactive)"),
    ("CC(C)c1c(C(=O)Nc2ccccc2)c(-c2ccccc2)c(-c2ccc(F)cc2)n1CC[C@@H]1CC=CC(=O)O1", "57.1% (inactive)"),
    ("CC1CN(C(C)C)C(=S)N(c2ccccc2)C1=O (stereo not drawn)", "90.7% (inactive)"),
    ("CCCCN(CCCC)CCC(C)(O)c1cc2ccccc2c2ccccc12 (stereo not drawn)", "98.6% (inactive)"),
    ("Cc1cc(=O)oc2cc(Oc3nc(-c4ccc(Cl)cc4)cn4c(-c5ccc(Cl)cc5)cnc34)ccc12", "94.6% (inactive)"),
    ("O=c1c(/C=C/c2ccco2)nnc(SCCN2CCOCC2)n1/N=C/c1ccc([N+](=O)[O-])cc1", "103% (inactive)"),
    ("OCCNCCNc1c2ccccc2nc2ccccc12", "114% (inactive)"),
    ("COc1ccc2nc3cc(Cl)ccc3c(NCCNCC(O)CO)c2c1 (stereo not drawn)", "30.7% (inactive)"),
    ("Cc1cc(Nc2nc(N3CCNCC3)nc3ccccc23)n[nH]1", "89.6% (inactive)"),
    ("CCN(CC)C12CCCCC1(C)C(C#N)(C#N)C(C#N)=C(N)O2 (stereo not drawn)", "101% (inactive)"),
    ("Cn1c2ccccc2c2c3c(c4c5ccccc5[nH]c4c21)C(=O)N(N)C3=O", "89.3% (inactive)"),
    ("O=C1C=CC(=O)N1c1ccc(Cc2ccc(N3C(=O)C=CC3=O)cc2)cc1", "86.4% (inactive)"),
    ("CC(C)n1cc2c(N)ncnc2n1", "109% (inactive)"),
    ("NCc1cn2cc(Cl)sc2n1", "98% (inactive)"),
    ("CCN(C(=O)CN1CCN(c2cc3c(cc2F)c(=O)c(C(=O)O)cn3C2CC2)CC1)c1nc(-c2ccc(OC)cc2)cs1", "92% (inactive)"),
    ("CCCN(CCC)CN(CCC)CCC", "102% (inactive)"),
    ("COc1cc(NCCCCCN=C(N)NC(N)=NC(C)C)c2ncccc2c1", "71.5% (inactive)"),
    ("CC/C(=C(\\c1ccc(O)cc1)c1ccc(OCCN(C)CCN(C)C(=O)CCCCC(=O)c2c(C)[nH]c(/C=C3\\N=C(c4ccc[nH]4)C=C3OC)c2C)cc1)c1ccccc1", "108% (inactive)"),
    ("O=C1O[C@H]([C@H](O)CO)C(O)=C1O", "101% (inactive)"),
    ("CCCCCCCCCCCCCC1=NCCN1CCO", "79.1% (inactive)"),
    ("Cc1noc(C)c1-c1cc(O)cc(C(O)c2ccccc2)c1 (stereo not drawn)", "73.3% (inactive)"),
    ("C=C(C[n+]1ccccc1)[C@@H]1CC[C@]2(C(=O)OC)CC[C@]3(C)[C@H](CC[C@@H]4[C@@]5(C)CC[C@H](O)C(C)(C)[C@@H]5CC[C@]43C)[C@@H]12", "102% (inactive)"),
    ("Nc1cccc(-c2nc3sccn3c2-c2ccnc(NCCCNS(=O)(=O)c3ccc(C(F)(F)F)cc3)n2)c1", "40.9% (inactive)"),
    ("COc1ccc(C(=O)/C=C/c2c(Cl)c3c(c(OC)c2Cl)OCC(=O)N3)cc1", "76.8% (inactive)"),
    ("CN1CCN(Cc2ccc(NC(=O)c3[nH]ncc3Nc3ncnc4[nH]ccc34)cc2)CC1", "11.6% (inactive)"),
    ("O=C(COCc1c(-c2ccccc2)no[n+]1[O-])Nc1ccc(C(=O)/C=C/c2ccc3c(c2)OCO3)cc1", "99.4% (inactive)"),
    ("COc1c2ccccc2c(OC)c2[nH]c(=O)ccc12", "75.4% (inactive)"),
    ("O=C(C[C@@H](C(=O)NCc1cccc(C(F)(F)F)c1)N1C(=O)[C@@H](N2C(=O)OC[C@@H]2c2ccccc2)[C@H]1/C=C/c1ccccc1)NC1CCN(Cc2ccccc2)CC1", "104% (inactive)"),
    ("ClC1=C2NC=NC2n2c(nnc2-c2ccc(Cl)cc2)N1 (stereo not drawn)", "110% (inactive)"),
    ("CS(=O)(=O)c1ccc(-c2cnc3ccc(-c4cccc(S(C)(=O)=O)c4)nn23)cc1", "44.2% (inactive)"),
    ("COc1ccc(-c2cc(C(=O)N=Nc3c(O)[nH]c4ccccc34)no2)cc1", "97.7% (inactive)"),
]
